Biological target: Calmodulin-1 (Homo sapiens) (UniProt P0DP23)
Test: calcium-bound CALM1 binders on microarrays, profiling panel, artefact control for SMM control-protein annotation, biochemical, small-molecule microarray, Cy5-labelled CALM1, plus calcium (AID 1112);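 also: score merges spot fluorescence with signal to noise from triplicate slides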
Details: Cy5-CALM1 binding fluorescence, higher = more signal
Examples of compounds with documented composite z-score follow.
Lab note: record the figure alone, no unit after it.

// known answers, use as guide
C=CC[C@]12N=C(c3ccc(OCCCO)cc3)O[C@H]1c1ccccc1N(C)C2=O    -0.274
NCCCCCNC(=O)[C@@H]1C[C@@H]2C(=O)N[C@@H](CCCCN)C(=O)N2[C@@H]1c1cccc(OCCO)c1    -0.262
CCC[C@@H]1C[C@@]1(CCC)[C@@H](NP(=O)(c1ccccc1)c1ccccc1)c1ccc(Cl)cc1    -1.31
O=C(NC1CC1)[C@@H]1c2ccccc2C(=O)N(Cc2ccccc2)[C@H]1c1ccc(CO)cc1    -0.648
C=CCNC(=O)[C@H]1[C@@H]2C(=O)O[C@@H](c3ccccc3)[C@@H](c3ccccc3)N2[C@@H](c2ccccc2OCCO)[C@]12C(=O)N(C(=O)OCCOC)c1ccc(C#CC3=CCCCC3)cc12    0.49
COCCOC(=O)N1C(=O)[C@@]2(c3cc(C#CC4(O)CCCCCC4)ccc31)[C@H](c1ccccc1OCCO)N1[C@H](c3ccccc3)[C@H](c3ccccc3)OC(=O)[C@H]1[C@@H]2C(N)=O    0.0078

Bench note, Calmodulin-1 (Homo sapiens) (UniProt P0DP23): entry `O=C1O[C@H](c2ccccc2)[C@H](c2ccccc2)N2[C@H]1[C@@H](C(=O)O)[C@]1(C(=O)Nc3ccccc31)[C@H]2c1ccc(O)cc1` , its composite z-score = -0.262
